meta.source: patent US20250297029A1

assay-target: T1, GPC3 (UniProt P51654 25-559, limits assumed)
T1 construct: also called antigen GPC3; Glypican 3
T1 sequence (P51654 25-559 limits assumed): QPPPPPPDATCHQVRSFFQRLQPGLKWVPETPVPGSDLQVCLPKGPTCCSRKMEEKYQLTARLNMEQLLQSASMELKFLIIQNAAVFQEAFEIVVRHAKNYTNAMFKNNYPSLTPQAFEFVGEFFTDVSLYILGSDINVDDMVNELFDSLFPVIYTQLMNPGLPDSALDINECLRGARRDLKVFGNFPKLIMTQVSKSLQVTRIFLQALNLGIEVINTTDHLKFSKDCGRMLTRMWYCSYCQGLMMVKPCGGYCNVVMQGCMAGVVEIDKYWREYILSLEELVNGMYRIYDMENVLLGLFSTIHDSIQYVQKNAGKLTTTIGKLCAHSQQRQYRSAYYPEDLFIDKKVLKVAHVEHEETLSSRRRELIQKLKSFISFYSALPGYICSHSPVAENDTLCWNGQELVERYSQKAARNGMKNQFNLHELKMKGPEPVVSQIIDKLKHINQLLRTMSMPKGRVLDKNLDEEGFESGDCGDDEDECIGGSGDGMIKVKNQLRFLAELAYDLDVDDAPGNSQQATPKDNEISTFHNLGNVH
assay-details: SPR as in Example 1 (Biacore T200; scFv-Fc captured, GPC3 in flow)
Listed here: items and their measured koff.

{"columns": ["binder", "koff, s⁻¹"],
 "data": [
  ["VL1.M2-VH2.M9 humanized scFv (scFv, not shown: a dimerising Fc or GST) scFv: DIVMTQTPLSLSVTPGQPASISCRSSQSLVHSNGNTYLHWYLQKPGQSPQLLIYKVSSRFSGVPDRFSGSGSGTDFTLKISRVEAEDVGVYYCSQNTHVPPTFGQGTKVEIKGGGGSGGGGSGGGGSQVQLVQSGAEVKKPGASVKVSCKASGYTFTSYEMHWVRQAPGQGLEWMGALDPKGGDTAYSQKFQGRVTLTADTSTSTVYMELSSLRSEDTAVYYCTRFYSYTYWGQGTLVTVSS", 0.0006],
  ["VL1.M6-VH2.M6 humanized scFv (scFv, not shown: a dimerising Fc or GST) scFv: DIVMTQTPLSLSVTPGQPASISCRSSQSLVHSNGNTYLHWYLQKPGQSPQLLIYKVSSRFSGVPDRFSGSGSGTDFTLKISRVEAEDVGVYYCMQNTHVPPTFGQGTKVEIKGGGGSGGGGSGGGGSQVQLVQSGAEVKKPGASVKVSCKASGYTFTSYEMHWVRQAPGQGLEWMGALDPKTGDTAYSQKFQGRVTLTADTSTSTVYMELSSLRSEDTAVYYCTRFYSYTYWGQGTLVTVSS", 0.00058],
  ["VL1.M3-VH2.M6 humanized scFv (scFv, not shown: a dimerising Fc or GST) scFv: DIVMTQTPLSLSVTPGQPASISCRSSQSLVHSNGKTYLHWYLQKPGQSPQLLIYKVSSRFSGVPDRFSGSGSGTDFTLKISRVEAEDVGVYYCSQNTHVPPTFGQGTKVEIKGGGGSGGGGSGGGGSQVQLVQSGAEVKKPGASVKVSCKASGYTFTSYEMHWVRQAPGQGLEWMGALDPKTGDTAYSQKFQGRVTLTADTSTSTVYMELSSLRSEDTAVYYCTRFYSYTYWGQGTLVTVSS", 0.0016],
  ["VL1.M2-VH2.M11 humanized scFv (scFv, not shown: a dimerising Fc or GST) scFv: DIVMTQTPLSLSVTPGQPASISCRSSQSLVHSNGNTYLHWYLQKPGQSPQLLIYKVSSRFSGVPDRFSGSGSGTDFTLKISRVEAEDVGVYYCSQNTHVPPTFGQGTKVEIKGGGGSGGGGSGGGGSQVQLVQSGAEVKKPGASVKVSCKASGYTFTSYEMHWVRQAPGQGLEWMGALDPKTGSTAYSQKFQGRVTLTADTSTSTVYMELSSLRSEDTAVYYCTRFYSYTYWGQGTLVTVSS", 0.00085],
  ["VL1.M8-VH2.M6 humanized scFv (scFv, not shown: a dimerising Fc or GST) scFv: DIVMTQTPLSLSVTPGQPASISCRSSQSLVHSNGNTYLHWYLQKPGQSPQLLIYKVSSRFSGVPDRFSGSGSGTDFTLKISRVEAEDVGVYYCSQNTHWPPTFGQGTKVEIKGGGGSGGGGSGGGGSQVQLVQSGAEVKKPGASVKVSCKASGYTFTSYEMHWVRQAPGQGLEWMGALDPKTGDTAYSQKFQGRVTLTADTSTSTVYMELSSLRSEDTAVYYCTRFYSYTYWGQGTLVTVSS", 0.0042],
  ["VL1.M2-VH2.M8 humanized scFv (scFv, not shown: a dimerising Fc or GST) scFv: DIVMTQTPLSLSVTPGQPASISCRSSQSLVHSNGNTYLHWYLQKPGQSPQLLIYKVSSRFSGVPDRFSGSGSGTDFTLKISRVEAEDVGVYYCSQNTHVPPTFGQGTKVEIKGGGGSGGGGSGGGGSQVQLVQSGAEVKKPGASVKVSCKASGYTFTSYEMHWVRQAPGQGLEWMGALDPSTGDTAYSQKFQGRVTLTADTSTSTVYMELSSLRSEDTAVYYCTRFYSYTYWGQGTLVTVSS", 0.00044]
]}
